All values here come from BindingDB's records for doi:10.1021/jm00163a034.

ASSAY_NOTES: Binding affinities against Opioid receptor delta 1 of guinea pig brain membrane using [3H]DPDPE as the radioligand using competition binding assays.
pKi: −log10 of the molar value. Square brackets hold non-standard residues; d marks the D form. Peptide text beside a SMILES is read from it. Phe(4-NO2) = N[CH](Cc1ccc([N+](=O)[O-])cc1)C(=O)O; NMeY = CN[CH](Cc1ccc(O)cc1)C(=O)O

{"COMPOUND": "CCNC(=O)[C@@H](CC(C)C)NC(=O)[C@H](CCCN=C(N)N)N(C)C(=O)[C@H](CCCN=C(N)N)NC(=O)[C@H](CC(C)C)NC(=O)[C@H](Cc1ccc([N+](=O)[O-])cc1)NC(=O)CNC(=O)CNC(=O)[C@H](Cc1ccc(O)cc1)NC", "pKi": 7.74}
{"COMPOUND": "CCNC(=O)[C@@H](CC(C)C)NC(=O)[C@H](CCCNC(=N)N)N(C)C(=O)[C@H](CCCNC(=N)N)NC(=O)[C@H](CC(C)C)NC(=O)[C@H](Cc1ccccc1)NC(=O)CNC(=O)CNC(=O)[C@H](Cc1ccc(O)cc1)NC", "pKi": 7.57}
{"COMPOUND": "CNC(Cc1ccc(O)cc1)C(=O)NCC(=O)NCC(=O)NC(Cc1ccc([N+](=O)[O-])cc1)C(=O)NC(CC(C)C)C(=O)NC(CCCNC(=N)N)C(=O)NC(CCCNC(=N)N)C(=O)NC(CC(C)C)C(N)=O (stereo unspecified) (H-[NMeY]GG[Phe(4-NO2)]LRRL-NH2; configuration not given here)", "pKi": 7.54}
{"COMPOUND": "CN[C@@H](Cc1ccc(O)cc1)C(=O)NCC(=O)NCC(=O)N[C@@H](Cc1ccccc1)C(=O)N[C@@H](CC(C)C)C(=O)N[C@@H](CCCNC(=N)N)C(=O)N(C)[C@@H](CCCNC(=N)N)C(=O)N[C@H](CC(C)C)C(N)=O", "pKi": 7.27}
{"COMPOUND": "CC[C@H](C)[C@H](NC(=O)[C@H](CCCNC(=N)N)NC(=O)[C@H](CCCNC(=N)N)NC(=O)[C@H](CC(C)C)NC(=O)[C@H](Cc1ccccc1)NC(=O)CNC(=O)CNC(=O)[C@@H](N)Cc1ccc(O)cc1)C(N)=O", "pKi": 7.62}
{"COMPOUND": "CCNC(=O)[C@@H](CC(C)C)NC(=O)[C@H](CCCN=C(N)N)N(C)C(=O)[C@H](CCCN=C(N)N)NC(=O)[C@@H]1CSSC[C@@H](NC(=O)[C@@H](N)Cc2ccc(O)cc2)C(=O)NCC(=O)N[C@@H](Cc2ccccc2)C(=O)N1", "pKi": 8.80}
